tested on: CYP1A1 mRNA; test: in vitro; details: female, human, culture HH52, TCDD 5 nM, 24 h
quantity: fold induction

[[record]]
compound = "Clc1cc2c(cc1Cl)Oc1cc(Cl)c(Cl)cc1O2 [TCDD, 2,3,7,8-tetrachlorodibenzo-p-dioxin]"
system = "CYP1A1 mRNA"
measvalue = 53


---

system: CYP1A1 mRNA; experiment: in vitro; settings: female, human, culture Hep220770, TCDD 5 nM, 24 h
quantity: fold induction

[[record]]
compound = "Clc1cc2c(cc1Cl)Oc1cc(Cl)c(Cl)cc1O2 [TCDD, 2,3,7,8-tetrachlorodibenzo-p-dioxin]"
quantity = "fold induction"
measvalue = 1840

